# TARGET OR SYSTEM: T2R08 (TAS2R08) (Homo sapiens, UniProt Q9NYW2)
# Construct: expressed in transfected cells; host or cells: cells expressing a promiscuous G protein (e.g., G16g44)
# Sequence (Q9NYW2 whole entry): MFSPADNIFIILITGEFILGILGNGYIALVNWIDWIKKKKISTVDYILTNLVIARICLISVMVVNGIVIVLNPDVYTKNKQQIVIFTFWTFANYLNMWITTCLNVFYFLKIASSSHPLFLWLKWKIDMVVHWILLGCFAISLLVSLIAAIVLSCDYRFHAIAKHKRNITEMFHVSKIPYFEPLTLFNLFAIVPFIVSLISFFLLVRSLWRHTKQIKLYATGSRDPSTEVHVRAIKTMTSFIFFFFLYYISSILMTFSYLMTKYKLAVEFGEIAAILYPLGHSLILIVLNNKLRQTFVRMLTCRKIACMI
# MEASUREMENT NOTES: FLIPR calcium assay, block of bitter agonist response in cells transfected with T2R08
# Type: cell-based
# EXPERIMENTAL CONDITIONS: saturated fatty acid concentration of 200 μM, read-out: percentage block of cellular response over baseline, 08
PROPERTY MEASURED: inhibition at 200 µM

compound="CCCCCC(C)CCC(=O)O (stereo not drawn)" recorded_value="> 55%"
compound="CCCCC(C)CCC(=O)O (stereo not drawn)" recorded_value=45%
compound=CCCCCCCCCC(=O)O recorded_value="> 65%"

###

# TARGET OR SYSTEM: T2R54 (TAS2R39) (Homo sapiens, UniProt P59534)
# Construct: expressed in transfected cells; host or cells: cells expressing a promiscuous G protein (e.g., G16g44)
# Sequence (P59534 whole entry): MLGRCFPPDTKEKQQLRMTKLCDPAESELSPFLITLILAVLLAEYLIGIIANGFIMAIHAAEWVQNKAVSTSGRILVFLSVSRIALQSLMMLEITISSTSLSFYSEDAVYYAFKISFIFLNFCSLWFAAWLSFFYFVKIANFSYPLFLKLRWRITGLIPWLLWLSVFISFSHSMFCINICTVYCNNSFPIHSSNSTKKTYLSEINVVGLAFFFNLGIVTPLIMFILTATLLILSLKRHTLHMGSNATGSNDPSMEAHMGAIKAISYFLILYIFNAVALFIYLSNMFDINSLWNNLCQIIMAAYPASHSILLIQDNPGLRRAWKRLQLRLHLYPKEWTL
# MEASUREMENT NOTES: FLIPR calcium assay, block of bitter agonist response in cells transfected with T2R54
# Assay type: cell-based
# EXPERIMENTAL CONDITIONS: saturated fatty acid concentration of 200 μM
# Description: Cells expressing a promiscuous […] (e.g., G16g44) were transfected with vectors encoding 5 functional bitter receptor cDNAs, with one receptor per transfection. The cells were transfected directly in 384-well format high-density plates and incubated for 28 hours. […] After an incubation of 60 minutes, excess dye is washed off, and cells are stimulated with various saturated fatty acids while simultaneously recording changes in intracellular fluorescence using a FLIPR instrument. […]
Overview of reported percentage block of cellular response over baseline, 54 across a group of molecules:
PROPERTY MEASURED: percentage block of cellular response over baseline, 54 (%)

molecule="CCCCCC(C)C(=O)O (stereo not shown)" comparison_sign== recorded_value=80
molecule="CCCCC(CC)C(=O)O (stereo not shown)" comparison_sign== recorded_value=50
molecule="CCCCC(CC)CCC(=O)O (stereo not shown)" comparison_sign== recorded_value=95
molecule="CCCCC(C)C(=O)O (stereo not shown)" comparison_sign== recorded_value=50
molecule=CCCCCCCC(=O)O comparison_sign== recorded_value=90
molecule="CCCCCCC(=O)O [Compound 101, Heptanoic acid (Enanthic acid)]" comparison_sign== recorded_value=65
molecule=CCCCCCCCCC(=O)O comparison_sign=> recorded_value=75

###

# TARGET OR SYSTEM: T2R14 (TAS2R14) (Homo sapiens, UniProt Q9NYV8)
# Construct: expressed in transfected cells; host or cells: cells expressing a promiscuous G protein (e.g., G16g44)
# Sequence (Q9NYV8 whole entry): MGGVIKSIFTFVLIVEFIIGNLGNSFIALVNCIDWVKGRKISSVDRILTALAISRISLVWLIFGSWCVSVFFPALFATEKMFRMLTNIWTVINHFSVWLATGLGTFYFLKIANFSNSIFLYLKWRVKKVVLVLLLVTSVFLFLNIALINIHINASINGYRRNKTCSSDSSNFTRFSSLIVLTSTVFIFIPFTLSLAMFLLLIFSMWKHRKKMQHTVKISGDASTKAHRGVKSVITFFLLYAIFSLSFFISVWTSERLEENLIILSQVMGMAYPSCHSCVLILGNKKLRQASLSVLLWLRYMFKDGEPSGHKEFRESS
# MEASUREMENT NOTES: FLIPR calcium assay, block of bitter agonist response in cells transfected with T2R14
# Assay type: cell-based
# EXPERIMENTAL CONDITIONS: saturated fatty acid concentration of 200 μM
# Experimental: Cells expressing a promiscuous […] (e.g., G16g44) were transfected with vectors encoding 5 functional bitter receptor cDNAs, with one receptor per transfection. The cells were transfected directly in 384-well format high-density plates and incubated for 28 hours. […] After an incubation of 60 minutes, excess dye is washed off, and cells are stimulated with various saturated fatty acids while simultaneously recording changes in intracellular fluorescence using a FLIPR instrument. […]
PROPERTY MEASURED: percentage block of cellular response over baseline, 14

compound=CCCCCCCCCC(=O)O recorded_value=>55%
compound="CCCCCC(C)CCC(=O)O (stereo not shown)" recorded_value=>40%
compound=CCCCCCCCCCC(=O)O recorded_value=>85%
compound=CCCCCCCCCCCCC(=O)O recorded_value=>25%
compound=CCCCCCCC(=O)O recorded_value=>25%
compound=CCCCCCCCC(=O)O recorded_value=>35%
compound=CCCCCCCCCCCC(=O)O recorded_value=65%
